target_desc: Squalene synthase (Mus musculus) (UniProt P53798)
Sequence (P53798 whole entry): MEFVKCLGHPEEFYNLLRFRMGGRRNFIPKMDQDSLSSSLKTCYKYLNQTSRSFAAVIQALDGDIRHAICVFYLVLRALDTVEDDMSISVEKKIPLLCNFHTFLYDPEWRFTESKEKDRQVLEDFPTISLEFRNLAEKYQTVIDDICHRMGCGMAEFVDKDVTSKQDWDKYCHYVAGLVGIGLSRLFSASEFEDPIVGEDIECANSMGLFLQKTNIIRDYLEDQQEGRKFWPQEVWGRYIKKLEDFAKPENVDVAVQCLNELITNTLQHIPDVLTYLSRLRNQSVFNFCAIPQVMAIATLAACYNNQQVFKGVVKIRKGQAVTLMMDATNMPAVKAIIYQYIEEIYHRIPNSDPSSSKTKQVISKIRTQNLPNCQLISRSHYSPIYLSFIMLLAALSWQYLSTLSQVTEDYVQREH
assay_remarks: Tested for the effective dose required for the incorporation of [5-3H]-mevalonolactone into cholesterol by in vivo mouse assay by peroral administration
Format: functional, organism-based
Quick list: ED50 per entry.
Use mg/kg as the unit, but write only the number.

>  <compound>
C=C(CCC12OC(C(=O)O)C(O)(C(=O)O)C(C(=O)O)(O1)[C@H](OC(=O)CCCOC)[C@H]2O)[C@@H](OC(C)=O)[C@H](C)Cc1ccccc1 (some centres undefined)

>  <ED50, mg/kg>
20

$$$$
>  <compound>
C=C(CCC12OC(C(=O)O)C(O)(C(=O)O)C(C(=O)O)(O1)[C@H](OC(=O)SC(C)C)[C@H]2O)[C@@H](OC(C)=O)[C@H](C)Cc1ccccc1 (some centres undefined)

>  <ED50, mg/kg>
14

$$$$
>  <compound>
C=C(CCC12OC(C(=O)O)C(O)(C(=O)O)C(C(=O)O)(O1)[C@H](OC(=O)NCC1CC1)[C@H]2O)[C@@H](OC(C)=O)[C@H](C)Cc1ccccc1 (some centres undefined)

>  <ED50, mg/kg>
8

$$$$

Problem: Sample C=C(CCC12OC(C(=O)O)C(O)(C(=O)O)C(C(=O)O)(O1)[C@H](OCCC)[C@H]2O)[C@@H](OC(C)=O)[C@H](C)Cc1ccccc1 (some centres undefined) — what was its ED50?
Solution: 8

Problem: Sample C=C(CCC12OC(C(=O)O)C(O)(C(=O)O)C(C(=O)O)(O1)[C@H](OC(=O)[C@@H](C)CC)[C@H]2O)[C@@H](OC(C)=O)[C@H](C)Cc1ccccc1 (some centres undefined) — what was its ED50?
Solution: 24

Problem: Sample C=C(CCC12OC(C(=O)O)C(O)(C(=O)O)C(C(=O)O)(O1)[C@H](OC(=O)NC1CCC1)[C@H]2O)[C@@H](OC(C)=O)[C@H](C)Cc1ccccc1 (some centres undefined) — what was its ED50?
Solution: 6

Problem: Sample C=C(C)CC(=O)O[C@@H]1[C@@H](O)C2(CCC(=C)[C@@H](OC(C)=O)[C@H](C)Cc3ccccc3)OC(C(=O)O)C(O)(C(=O)O)C1(C(=O)O)O2 (some centres undefined) — what was its ED50?
Solution: 12

Problem: Sample C=C(CCC12OC(C(=O)O)C(O)(C(=O)O)C(C(=O)O)(O1)[C@H](OC(=O)NC1CC1)[C@H]2O)[C@@H](OC(C)=O)[C@H](C)Cc1ccccc1 (some centres undefined) — what was its ED50?
Solution: 11

Problem: Sample C=C(CCC12OC(C(=O)O)C(O)(C(=O)O)C(C(=O)O)(O1)[C@H](OC(=O)C(C)C)[C@H]2O)[C@@H](OC(C)=O)[C@H](C)Cc1ccccc1 (some centres undefined) — what was its ED50?
Solution: 8

Problem: Sample C=C(CCC12OC(C(=O)O)C(O)(C(=O)O)C(C(=O)O)(O1)[C@H](OC(=O)OCC)[C@H]2O)[C@@H](OC(C)=O)[C@H](C)Cc1ccccc1 (some centres undefined) — what was its ED50?
Solution: 9

Problem: Sample C=C(CCC12OC(C(=O)O)C(O)(C(=O)O)C(C(=O)O)(O1)[C@H](OC(=O)NCc1ccccc1)[C@H]2O)[C@@H](OC(C)=O)[C@H](C)Cc1ccccc1 (some centres undefined) — what was its ED50?
Solution: 40

Problem: Sample C=C(CCC12OC(C(=O)O)C(O)(C(=O)O)C(C(=O)O)(O1)[C@H](OC(=O)CC(C)C)[C@H]2O)[C@@H](OC(C)=O)[C@H](C)Cc1ccccc1 (some centres undefined) — what was its ED50?
Solution: 11

Problem: Sample C=C(CCC12OC(C(=O)O)C(O)(C(=O)O)C(C(=O)O)(O1)[C@H](OC(=O)NC(C)C)[C@H]2O)[C@@H](OC(C)=O)[C@H](C)Cc1ccccc1 (some centres undefined) — what was its ED50?
Solution: 6

Problem: Sample C=C(CCC12OC(C(=O)O)C(O)(C(=O)O)C(C(=O)O)(O1)[C@H](OC(=O)CCC)[C@H]2O)[C@@H](OC(C)=O)[C@H](C)Cc1ccccc1 (some centres undefined) — what was its ED50?
Solution: 4.5

Problem: Sample C=C(CCC12OC(C(=O)O)C(O)(C(=O)O)C(C(=O)O)(O1)[C@H](OC(C)=O)[C@H]2O)[C@@H](OC(C)=O)[C@H](C)Cc1ccccc1 (some centres undefined) — what was its ED50?
Solution: 18

Problem: Sample C=C(CCC12OC(C(=O)O)C(O)(C(=O)O)C(C(=O)O)(O1)[C@H](OCCC(C)C)[C@H]2O)[C@@H](OC(C)=O)[C@H](C)Cc1ccccc1 (some centres undefined) — what was its ED50?
Solution: 9
